Measured pEC50, listed per entry for reference.
- ASSAY_TARGET: bovine submaxillary mucin (bovine)
- EXPERIMENT_SUMMARY: ELISA on BSM-coated wells; periodate-sensitive signal
Scale explanation: pEC50 corresponds to minus log10 of a concentration expressed in moles per litre.

Here is how some binders turned out for pEC50.
Humanized 3F1 VL1,VH2 (antibody, V domains shown) VH: QVQLVQSGAEVKKPGASVKISCKASGYTFTDHAIHWVRQAPGQGLEWIGYISPGNGDIKYNEKFKDRVTLTADKSSSTASMHLRSLRSDDTAVYFCKRSLLALDYWGQGTLVTVSS VL: DIQMTQSPSSLSASVGDRVTITCKASQDVGTNIAWYQQKPGKAPKVLIYSASTRHTGVPSRFSGSGSGTDFTLTISSLQPEDFATYFCQQYSSFPLTFGQGTKVEIK :: 8.85
Humanized 2G12-2B2 VL2,VH1 (antibody, V domains shown) VH: QVQLVQSGAEVKKPGASVKVSCKASGYTFTDHAIHWVRQAPGQGLEWMGYFSPGNDDIKYNEKFRGRVTMTADKSSSTAYMELRSLRSDDTAVYFCKRSLSTPYWGQGTLVTVSS VL: DIVMTQSPDSLAVSLGERVTMSCKSSQSLLNRGNHKNYLTWYQQKPGQPPKLLIYWASTRESGVPDRFSGSGSGTDFTLTISSLQAEDVAVYYCQNDYTYPYTFGQGTKVEIK :: 8.36
Humanized 2G12-2B2 VL0,VH3 (antibody, V domains shown) VH: EVQLVQSGAEVKKPGASVKVSCKASGYTFTDHAIHWVRQAPGQGLEWMGYFSPGNDDIKYNEKFRGRVTMTADKSSSTAYMELRSLRSDDTAVYFCKRSLSTPYWGQGTLVTVSS VL: DIVMTQSPDSLAVSLGERATINCKSSQSLLNRGNHKNYLTWYQQKPGQPPKLLIYWASTRESGVPDRFSGSGSGTDFTLTISSLQAEDVAVYYCQNDYTYPYTFGQGTKVEIK :: 8.38

As a next step, examine the binder that follows.
**Q:** Report measured pEC50; entry is Humanized 3F1 VL1,VH4 (antibody, V domains shown) VH: EVQLVQSGAEVKKPGASVKISCKASGYTFTDHAIHWVRQAPGQGLEWIGYISPGSGDIKYNEKFKDRVTLTADKSSSTASMHLRSLRSDDTAVYFCKRSLLALDYWGQGTLVTVSS VL: DIQMTQSPSSLSASVGDRVTITCKASQDVGTNIAWYQQKPGKAPKVLIYSASTRHTGVPSRFSGSGSGTDFTLTISSLQPEDFATYFCQQYSSFPLTFGQGTKVEIK
**A:** 8.19

meta.source: patent US20230331868A1
